- systemTested: T1, human melanocortin 5 receptor (human, UniProt P33032 1-325)
- T1 construct: whole, on cells; also called hMC5-R; MC5-R
- T1 sequence (P33032 whole entry): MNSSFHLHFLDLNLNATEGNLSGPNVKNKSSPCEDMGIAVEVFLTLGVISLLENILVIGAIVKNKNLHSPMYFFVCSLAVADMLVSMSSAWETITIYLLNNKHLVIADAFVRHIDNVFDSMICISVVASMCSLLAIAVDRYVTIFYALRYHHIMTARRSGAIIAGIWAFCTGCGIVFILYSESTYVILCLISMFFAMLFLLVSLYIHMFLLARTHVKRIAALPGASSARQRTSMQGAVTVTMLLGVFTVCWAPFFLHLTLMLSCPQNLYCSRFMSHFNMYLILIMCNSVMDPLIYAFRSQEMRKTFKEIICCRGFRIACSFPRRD
- measurementNotes: radioligand competition, [I125]-NDP-α-MSH, hMC5-R membranes
parameter: pKi
Scale: negative log10 of molar concentration, which is what pKi denotes.

Looking up XDHFRXK (N-terminal acetyl; Nle at 1 (X); D-Phe at 4; Nal 1 at 6 (X); cyclo(Asp 2 to Lys 7); C-terminal ethylamide -NH-CH2-CH3, also called Compound No. 39) [Ac-Nle-cyclo(-Asp-His-D-Phe-Arg-Nal 1-Lys)-NH-CH2-CH3] , I found its pKi recorded as 7.20
